- Test system: DeltatarO mutant
- method.summary: S. aureus survival, RN4220 and DeltatarO strains – OD600, teichoic acid synthesis inhibitors, primary screen (AID 463173)
- condition.context: S. aureus RN4220 wild type/DeltatarO growth, OD600, 18 h, hits give low values, screened at 18.75 µg/mL (by protocol)
Among all 52,000 compounds or so, about 4,300 (8.3%) were called active. The sample holds actives, similar compounds and a random draw of the others, so the mix is not that of the screen.
quantity.kind: survival (%)

>>> test_value("CCc1ccc(-c2nn(CC(=O)NCc3ccccc3)c3c2cnc2ccc(F)cc23)cc1")
92
>>> test_value("COc1ccc(CCNC(=O)c2cc3n(n2)C(C(F)(F)F)CC(C2CC2)N3)cc1OC (centres undefined)")
99
>>> test_value("Cc1ccc2nc(-c3c[nH]c4ccccc34)c(Nc3ccccc3)n2c1")
78
>>> test_value("Fc1ccc(Nc2c(-c3c[nH]c4ccccc34)nc3ccccn23)cc1")
70
>>> test_value("CCOc1ccc(-c2nnc(SCC(=O)NCc3ccccc3)nc2-c2ccc(OCC)c(OC)c2)cc1OC")
80
>>> test_value("O=C(Cn1c(=O)nc(-c2ccccc2)c2ccccc21)Nc1ccc(Cl)c(C(F)(F)F)c1")
90
>>> test_value("CCOC(=O)C1CCCN(C(=O)c2nn(-c3ccc(C)cc3)c(=O)c3c2c2ccccc2n3C)C1 (centres undefined)")
90
>>> test_value("Cc1cccc(OCCCSc2nc(-c3ccc(C(C)(C)C)cc3)nc3cc(=O)[nH]n23)c1C")
102
>>> test_value("Cc1ccc(NS(=O)(=O)c2ccc(-c3cc(C)no3)cc2)c(Br)c1")
75
